# Target desc: T1, native human ApoC3 (human, UniProt P02656 21-99, biotinylated in the captured-antigen assays (Tables 6 and 8); sites not stated)
# T1 construct: also called nhuApoC3; native huApoC3
# T1 sequence (P02656 21-99): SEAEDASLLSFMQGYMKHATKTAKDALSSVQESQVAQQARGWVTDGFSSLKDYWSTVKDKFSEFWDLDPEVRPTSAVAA
# Assay info: SPR, IgG captured via anti-human Fc, ApoC3 analyte 100 nM

| Binder | kon (M⁻¹ s⁻¹) |
| --- | --- |
| 29B03 IgG (antibody, V domains shown) VH: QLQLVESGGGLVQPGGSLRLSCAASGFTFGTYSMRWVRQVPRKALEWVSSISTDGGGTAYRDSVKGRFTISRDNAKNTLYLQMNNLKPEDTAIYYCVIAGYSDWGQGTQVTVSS VL: DVVLTQTPGSLSVVPGESASISCKAGQNLVHPDGKTYLYWLLQKPGQSPQRLIYQVSNRDSGVPDRFTGSGSGTDFTLKISGVKVEDAGVYYCAQGTYWPKTFGQGTKLEIK | 238000 |
